# protocolText: NCI Yeast Anticancer Drug Screen. Data for the bub3 strain (AID 167)
# runConditions: S. cerevisiae bub3 mutant strain, at 50.0 µM
About 79,000 compounds went through this panel and 15% of them were active in at least one assay; those are over-represented in the sample as a whole. Calls of active or inactive are those of the source. Rule as the data show it: active = growth inhibition above about 70%; inactive = the rest.
Choose the fitting class; nothing outside True = active, False = inactive is accepted.

Known results for molecules:
| molecule | class |
| --- | --- |
| CCCCN(CCCC)CC(=O)c1ccc2cc(Cl)c3ccccc3c2c1 | True |
| O=S1OCCS1 (configuration not stated) | True |
| CCCCN(CCCC)CC(O)Cc1cc2ccccc2c2ccccc12 (configuration not stated) | True |
| CCCCCCCCCCCC(=O)NCCc1ccc(O)c(O)c1 | True |
| CC1COC(c2cn[nH]c2C(N)=O)C1O (configuration not stated) | False |
| CCCCNc1cccc2ncccc12 | False |

Now look at this one.
Inquiry: Give the logged outcome of this assay for the following molecule: CN(C)CC(C)(C)C(/C=C/c1ccccc1)=N\Nc1ccccc1
Reply text: True

Measured values drawn from PubChem BioAssay (NCI) for this set.
